assay: qHTS Assay for Enhancers of SMN2 Splice Variant Expression; conditions: HEK293 SMN2-luciferase splicing reporter, luminescence, 30-36 h; series mostly up to 46.1 µM; also: nearly all actives have a fitted effect of over 55% in size
The campaign covered roughly 210,000 compounds. About 5,900 (2.8%) were called active. About 5% were inconclusive and are not listed. Calls follow the shape of the dose curve; as a rule, active = well fitted activation curve with a large enough effect; inconclusive = small, poorly fitted or top-dose-only effect; inactive = no such curve, though single readings can be large or run the other way. For the sample, actives were picked, then their nearest neighbours and some compounds at random.
Give one outcome, nothing more. List: active, inactive

COMPOUND: CCN(CC)c1ccc(/C=N/Nc2nc(C)cc(C)n2)c(O)c1
CLASS LABEL: inactive
--
COMPOUND: CCN(CC)S(=O)(=O)c1cccc(C(=O)Nc2ccccc2)c1
CLASS LABEL: inactive

(Q) GET /call?item= COc1ccc(/C=C(\C#N)C(=O)ONC2=NCCCCC2)cc1 returns the recorded outcome of this test.
(A) inactive

(Q) GET /call?item= O=C(Nc1ccc2c(c1)OCCO2)C1CCCN(c2ncccn2)C1 (stereo unspecified) returns the recorded outcome of this test.
(A) active

(Q) GET /call?item= CC(=O)Nc1ccc(-c2csc(NC(=O)Nc3ccccc3)n2)cc1 returns the recorded outcome of this test.
(A) inactive
